The measurements presented in this section are drawn from paper PMC6278539.

Biological target: AKR1A1 (Homo sapiens)
Sequence (P14550 whole entry): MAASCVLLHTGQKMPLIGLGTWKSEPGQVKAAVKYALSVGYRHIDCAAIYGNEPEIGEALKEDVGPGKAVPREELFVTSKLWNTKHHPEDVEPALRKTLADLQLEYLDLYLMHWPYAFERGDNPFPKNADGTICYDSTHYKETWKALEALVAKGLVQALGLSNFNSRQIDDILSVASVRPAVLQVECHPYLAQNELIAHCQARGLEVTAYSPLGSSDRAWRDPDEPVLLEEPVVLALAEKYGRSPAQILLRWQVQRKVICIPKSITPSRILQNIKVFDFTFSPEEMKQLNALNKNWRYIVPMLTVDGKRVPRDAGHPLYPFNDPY
pIC50: −log10 of the molar value.
recordedMetric: pIC50

// query Which value of pIC50 has been reported for CC(C)=CCC1C(=O)C(C(=O)CC(C)C)=C(O)C(O)(CC=C(C)C)C1=O (stereo not shown) [Compound 3, n-humulone] in the records?
// result < 4.00

---

Record: pIC50 reported on AKR1B1 (Homo sapiens).
pIC50: −log10 of the molar value.

1) CC(C)=CCC1=C(O)C(O)(CC=C(C)C)C(=O)C(C(=O)C(C)C)=C1O (stereo in doubt)	< 3.90
2) CC(C)=CCC1C(=O)C(C(=O)CC(C)C)=C(O)C(O)(CC=C(C)C)C1=O (stereo not drawn)	< 3.90

// query Field request: pIC50 | item: CCC(C)C(=O)C1=C(O)C(CC=C(C)C)=C(O)[C@](O)(CC=C(C)C)C1=O (stereo partly drawn)
// result < 3.90

---

Biological target: AKR1B10 (Homo sapiens)
Construct: 6xHis; made in house; host or cells: E. coli BL21 (DE3)
Sequence (O60218 whole entry): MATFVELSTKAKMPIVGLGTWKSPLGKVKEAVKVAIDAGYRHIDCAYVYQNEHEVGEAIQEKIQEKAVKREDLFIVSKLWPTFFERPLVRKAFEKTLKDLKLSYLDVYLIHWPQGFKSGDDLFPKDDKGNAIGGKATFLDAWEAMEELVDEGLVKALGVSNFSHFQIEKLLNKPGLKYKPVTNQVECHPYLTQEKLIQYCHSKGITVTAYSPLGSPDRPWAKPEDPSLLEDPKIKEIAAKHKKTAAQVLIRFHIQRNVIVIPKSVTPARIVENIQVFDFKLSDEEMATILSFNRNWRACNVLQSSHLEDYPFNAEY
Test: AKR1B10-mediated farnesal reduction inhibition
Format: biochemical
Settings: AKR1B10, Farnesal [5 µM], mean ± SD
recordedMetric: Ki (µM)
All answers are understood in µM, so give the number only.

// query # get_value(readout='Ki', item= CCC(C)C(=O)C1=C(O)C(CC=C(C)C)=C(O)[C@](O)(CC=C(C)C)C1=O (stereo partly drawn) )
// result 16.8

// query Now this one: CC(C)=CCC1C(=O)C(C(=O)CC(C)C)=C(O)C(O)(CC=C(C)C)C1=O (stereo not drawn)
// result 3.94

// query What would you report for CC(C)=CCC1=C(O)C(O)(CC=C(C)C)C(=O)C(C(=O)C(C)C)=C1O (stereo in doubt) ?
// result 16.5
